These entries and their values trace back to PubChem BioAssay (NCI).

# Test Protocol: NCI Yeast Anticancer Drug Screen. Data for the cln2 rad14 strain (AID 165)
# Experimental Parameters: S. cerevisiae cln2 rad14 strain, at 50.0 µM
Compounds without any hit were thinned out: in the full panel of roughly 79,000, 15% have a hit. Activity calls are given as the source filed them. No stated cut-off is given here; in the data, active means growth inhibition above about 70%; inactive means the rest.
Classes used: active, inactive

Molecule | Answer Label
CC(C)(C)OC(=O)N(CCCCNC(=O)c1ccccc1)CCCNC(=O)c1ccccc1 | inactive
COC(=O)C1C(=O)CC(C)(O)C(C(=O)OC)C1c1ccc(N(C)C)cc1 (centres undefined) | inactive
Cc1ccc(NC(=O)Nc2ccc(Cl)cc2)c(C)c1 | inactive
C1CCC2(CC1)CCCO2 | inactive
N#C/C(=N/Nc1ccccc1)c1ccccc1 | inactive
CCOC(=O)c1cc(C)nc(Cl)c1C#N | inactive
CN(C)C(=O)NO | inactive
CCCCCCCCCCCCCCCCN(O)C(=O)c1cnc[nH]1 | inactive
O=C1OC(c2ccc([N+](=O)[O-])cc2)=N/C1=C\c1cc(Br)ccc1O | inactive
CC1CCC(=O)CN1Cc1ccccc1 (centres undefined) | inactive
CC[O-].CC[O-].O=C([CH-]C(=O)c1cccnc1)c1ccccc1.O=C([CH-]C(=O)c1cccnc1)c1ccccc1.[Ti+4] | inactive
O=Cc1ccc(-c2ccc(S(=O)(=O)O)cc2)o1 | inactive
CCCCOc1ccc(N)cn1 | inactive
Cc1ccc(C)c(NC(=O)OC/C=C/c2ccccc2)c1 | inactive
Cn1c2ccccc2c2nnc(N/N=C/c3cccnc3)nc21 | inactive
Cc1nc(Nc2ccc(Cl)c(Cl)c2)sc1C(=O)/C=C/c1ccc2c(c1)OCO2 | inactive
Cc1cccc[n+]1CC(=O)c1ccccc1[N+](=O)[O-] | inactive
C/[N+]([O-])=C/c1ncc([N+](=O)[O-])n1CCO | inactive
CC1=CC(=O)c2cc(C)ccc2C1=O | inactive
N#Cc1cnn2ccn(C3OC(CO)C(O)C3O)c12 (centres undefined) | inactive
CC(C)C[C@H](NC(=O)[C@H](CCc1ccccc1)NC(=O)c1ccc2ccccc2n1)B(O)O | active
CNc1ncnc2c1cnn2-c1ccc(Cl)cc1 | inactive
COc1cc(C2(C)SCCCS2)c(I)c(OC)c1OC | inactive
CCc1cccc(C(C)CC)c1NC(=O)CC1C(=O)Nc2ccccc2S1=O (centres undefined) | inactive
COc1ccc2[nH]c(C(F)(F)F)cc(=O)c2c1 | inactive
Fc1cccc2c1Cc1ccccc1-2 | inactive
C/C=C1\CN2CCc3c([nH]c4ccccc34)C2C=C1CCO (centres undefined) | inactive
C1CCCCC2(CCCCCCCCC3(CCC1)OCCO3)OCCO2 | inactive
Oc1cc2c(cc1O)C1c3ccc(O)c(O)c3OCC1(O)C2 (centres undefined) | inactive
